# reported GI50 (pg/ml), MDA-MB-231 cytotoxicity, MTS assay, 5 days; entries follow
Biological target: T1, AXL on MDA-MB-231 cells (UniProt P30530 26-894, limits assumed)
T1 sequence (looked up): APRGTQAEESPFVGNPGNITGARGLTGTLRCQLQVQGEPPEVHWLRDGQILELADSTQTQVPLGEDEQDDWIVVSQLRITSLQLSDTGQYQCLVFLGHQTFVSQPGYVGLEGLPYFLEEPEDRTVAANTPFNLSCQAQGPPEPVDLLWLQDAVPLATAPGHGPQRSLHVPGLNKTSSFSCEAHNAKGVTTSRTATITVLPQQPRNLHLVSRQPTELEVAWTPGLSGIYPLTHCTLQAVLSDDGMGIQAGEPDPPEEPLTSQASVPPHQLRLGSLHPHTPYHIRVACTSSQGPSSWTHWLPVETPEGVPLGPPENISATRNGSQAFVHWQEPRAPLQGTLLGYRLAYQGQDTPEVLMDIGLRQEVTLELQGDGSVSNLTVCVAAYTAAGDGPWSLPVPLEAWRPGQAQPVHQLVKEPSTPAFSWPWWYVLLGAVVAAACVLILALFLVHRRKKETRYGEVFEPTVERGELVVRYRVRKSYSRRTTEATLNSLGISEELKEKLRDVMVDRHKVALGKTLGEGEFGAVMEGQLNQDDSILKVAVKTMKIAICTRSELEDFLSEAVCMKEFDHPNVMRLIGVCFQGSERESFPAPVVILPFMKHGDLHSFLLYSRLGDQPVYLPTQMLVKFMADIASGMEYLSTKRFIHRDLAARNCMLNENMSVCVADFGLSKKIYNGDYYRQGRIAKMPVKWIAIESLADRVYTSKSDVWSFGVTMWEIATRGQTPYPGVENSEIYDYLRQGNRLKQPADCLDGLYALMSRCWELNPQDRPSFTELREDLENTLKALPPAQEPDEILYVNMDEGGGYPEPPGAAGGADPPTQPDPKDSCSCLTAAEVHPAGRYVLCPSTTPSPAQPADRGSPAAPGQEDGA
Assay: cell-based or functional assay
Don't forget the unit after the number, please.

In the examples that follow, each entry is paired with its recorded GI50 (pg/ml), MDA-MB-231 cytotoxicity, MTS assay, 5 days.
# Binder, Reported Result
rows = [
    ("Ab2-ConjE (Ab2 conjugated to the ConjE PBD payload, DAR 2.4) (other, ConjE PBD drug-linker on cysteine thiol(s) of the antibody, sites not stated; DAR 2.4) VH: MGFKMESQFQVFVFVFLWLSGVDGQVQLVESGGGVVQPGRSLRLSCAASGFTFSSYGMSVRQAPGKGLEWVATISSGGSYTYYPDSVKGRFTISRDNSKNTLYLQMNSLRAEDTAVYYCARHPIYYTYDDTMDYWGQGTTVTVSS VL: EIVLTQSPATLSLSPGERATLSCSASSSVSSGNFHWYQQKPGLAPRLLIYRTSNLASGIPDRFSGSGSGTDFTLTISRLEPEDFAVYYCQQWSGYPWTFGPGTKVDIK", "73 pg/mL"),
    ("Ab3-ConjE (Ab3 conjugated to the ConjE PBD payload, DAR 2.2) (other, ConjE PBD drug-linker on cysteine thiol(s) of the antibody, sites not stated; DAR 2.2) VH: MGFKMESQFQVFVFVFLWLSGVDGQVQLVESGGGVVQPGRSLRLSCAASGFTFSSYGMSVRQAPGKGLEWVATISSGGSYTYYPDSVKGRFTISRDNSKNTLYLQMNSLRAEDTAVYYCARHPIYYTYDDTMDYWGQGTTVTVSS VL: EIVLTQSPGTLSLSPGERATLSCSASSSVSSGNFHWYQQKPGLAPRLLIYRTSNLASGIPARFSGSGSGTDFTLTISSLEPEDFAVYYCQQWSGYPWTFGGGTKLEIK", "27.6 pg/mL"),
    ("Ab5-ConjE (Ab5 conjugated to the ConjE PBD payload, DAR 2.3) (other, ConjE PBD drug-linker on cysteine thiol(s) of the antibody, sites not stated; DAR 2.3) VH: EVQLVESGGGLVQPGGSLRLSCAASGFTFSSYGMSWVRQAPGKGLEWVATISSGGSYTYYPDSVKGRFTISRDNAKNSLYLQMNSLRAEDTAVYYCARHPIYYTYDDTMDYWGQGTLVTVSS VL: EIVLTQSPGTLSLSPGERATLSCSASSSVSSGNFHWYQQKPGLAPRLLIYRTSNLASGIPARFSGSGSGTDFTLTISSLEPEDFAVYYCQQWSGYPWTFGGGTKLEIK", "44 pg/mL"),
]

Here is another binder to look at.
The recorded GI50 (pg/ml), MDA-MB-231 cytotoxicity, MTS assay, 5 days for Ab4-ConjE (Ab4 conjugated to the ConjE PBD payload, DAR 2.6) (other, ConjE PBD drug-linker on cysteine thiol(s) of the antibody, sites not stated; DAR 2.6) VH: EVQLVESGGGLVQPGGSLRLSCAASGFTFSSYGMSWVRQAPGKGLEWVATISSGGSYTYYPDSVKGRFTISRDNAKNSLYLQMNSLRAEDTAVYYCARHPIYYTYDDTMDYWGQGTLVTVSS VL: EIVLTQSPATLSLSPGERATLSCSASSSVSSGNFHWYQQKPGLAPRLLIYRTSNLASGIPDRFSGSGSGTDFTLTISRLEPEDFAVYYCQQWSGYPWTFGPGTKVDIK is 64.2 pg/mL
